# credit: patent US20260022175A1

Biological target: T1, hCTLA4-His-BAP (human CTLA4 extracellular region with C-terminal His-tag and BAP-tag) (human, biotin on the BAP-tag)
T1 construct: also called hCTLA4-His-Biotin
T1 sequence (chain, as listed by the source limits assumed): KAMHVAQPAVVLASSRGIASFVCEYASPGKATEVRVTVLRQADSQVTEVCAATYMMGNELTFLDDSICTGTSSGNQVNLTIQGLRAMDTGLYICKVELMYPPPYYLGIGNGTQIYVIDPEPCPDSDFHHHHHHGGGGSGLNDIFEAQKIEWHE
Experiment: SPR 37C, hCTLA4 1000 nM, ATP 100 µM; ATP 100 µM; binding amount at 1000 nM hCTLA4
MEASUREMENT_KIND: Binding to Human CTLA4

Query string: Reported Binding to Human CTLA4, binder 04H1207-G1m/04L1086-lam1 (antibody, human IgG1, lambda, V domains shown) VH: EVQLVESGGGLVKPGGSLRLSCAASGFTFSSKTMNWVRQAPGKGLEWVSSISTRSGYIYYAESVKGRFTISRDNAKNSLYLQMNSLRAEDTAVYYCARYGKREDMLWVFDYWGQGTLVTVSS VL: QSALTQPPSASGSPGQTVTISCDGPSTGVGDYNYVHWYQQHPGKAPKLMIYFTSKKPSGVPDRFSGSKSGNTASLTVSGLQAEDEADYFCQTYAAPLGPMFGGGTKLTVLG : ____
Result string: 0.196 per unit amount of antibody

Query string: Which Binding to Human CTLA4 is listed for 04H1077-G1m/04L1034-lam1 (antibody, human IgG1, lambda, V domains shown) VH: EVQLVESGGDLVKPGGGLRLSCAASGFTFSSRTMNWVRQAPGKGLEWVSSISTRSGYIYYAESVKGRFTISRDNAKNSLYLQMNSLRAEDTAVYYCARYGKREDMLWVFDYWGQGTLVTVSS VL: QSALTQPPSASGSPGQTVTISCDGPSTDVGDYNWVSWYQQHPGKAPKLMIYFTSKKPSGVPDRFSGSKSGNTASLTVSGLQAEDEADYFCSTYAAPLGPMFGGGTKLTVLG ?
Result string: 0.114 per unit amount of antibody

Query string: Given 04H1077-G1m/04L1086-lam1 (antibody, human IgG1, lambda, V domains shown) VH: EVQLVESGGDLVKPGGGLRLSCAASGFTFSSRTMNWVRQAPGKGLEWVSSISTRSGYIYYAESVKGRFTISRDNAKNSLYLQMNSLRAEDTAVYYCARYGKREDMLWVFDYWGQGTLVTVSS VL: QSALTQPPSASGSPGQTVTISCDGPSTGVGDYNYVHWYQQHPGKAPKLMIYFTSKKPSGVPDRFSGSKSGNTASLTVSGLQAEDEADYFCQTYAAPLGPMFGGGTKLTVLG , state its recorded Binding to Human CTLA4.
Result string: 0.181 per unit amount of antibody

Query string: Which Binding to Human CTLA4 value is on record for 04H1208-G1m/04L1086-lam1 (antibody, human IgG1, lambda, V domains shown) VH: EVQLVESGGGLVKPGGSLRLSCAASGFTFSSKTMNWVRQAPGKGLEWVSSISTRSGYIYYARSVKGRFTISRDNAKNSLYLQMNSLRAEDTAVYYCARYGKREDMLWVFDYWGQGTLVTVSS VL: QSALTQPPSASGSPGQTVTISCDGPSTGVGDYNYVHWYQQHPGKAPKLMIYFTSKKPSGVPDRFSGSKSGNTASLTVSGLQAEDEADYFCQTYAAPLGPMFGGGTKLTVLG ?
Result string: 0.17 per unit amount of antibody

Query string: Endpoint output: Binding to Human CTLA4 of 04H1077-G1m/04L1041-lam1 (antibody, human IgG1, lambda, V domains shown) VH: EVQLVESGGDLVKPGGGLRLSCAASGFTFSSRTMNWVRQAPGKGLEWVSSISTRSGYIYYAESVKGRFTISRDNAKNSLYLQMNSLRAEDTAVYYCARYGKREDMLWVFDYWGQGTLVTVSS VL: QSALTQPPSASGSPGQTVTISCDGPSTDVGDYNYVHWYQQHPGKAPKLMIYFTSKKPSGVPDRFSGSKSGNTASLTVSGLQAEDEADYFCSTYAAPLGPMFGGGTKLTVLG . Value?
Result string: 0.172 per unit amount of antibody

Query string: # get_value(readout='Binding to Human CTLA4', item= 04H1077-G1m/04L1067-lam1 (antibody, human IgG1, lambda, V domains shown) VH: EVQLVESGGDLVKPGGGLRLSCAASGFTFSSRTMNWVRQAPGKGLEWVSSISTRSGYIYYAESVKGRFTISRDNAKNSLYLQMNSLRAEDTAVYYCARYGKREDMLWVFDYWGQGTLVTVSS VL: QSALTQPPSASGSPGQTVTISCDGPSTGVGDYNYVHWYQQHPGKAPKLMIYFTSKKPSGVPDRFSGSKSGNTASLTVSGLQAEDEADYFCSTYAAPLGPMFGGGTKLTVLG )
Result string: 0.192 per unit amount of antibody
